assayProtocol: Drug excretion in healthy human urine assessed as unchanged drug at 75 mg, po administered as single dose coadministered with 100 mg of ritonavir by high-pressure liquid chromatography-tandem mass spectrometry/mass spectrometry method
Type: ADME, organism-based
testParameters: read-out: Drug uptake
valueType: dose excreted (%)
Give the number; % is assumed, so skip it.

// query Look up dose excreted for this compound: CCN1c2ncc(CCOc3cc[n+]([O-])c4ccccc34)cc2C(=O)N(C)c2cccnc21 [BILR 355]
// result 5.44

###

assayProtocol: Drug excretion in healthy human urine assessed as unchanged drug at 62.5 mg, po administered as single dose coadministered with 100 mg of ritonavir by high-pressure liquid chromatography-tandem mass spectrometry/mass spectrometry method
Format: ADME, organism-based
testParameters: read-out: Drug uptake
valueType: dose excreted (%)
Give the number; % is assumed, so skip it.

// query Look up dose excreted for this compound: CCN1c2ncc(CCOc3cc[n+]([O-])c4ccccc34)cc2C(=O)N(C)c2cccnc21 [BILR 355]
// result 5.05

###

assayProtocol: AUC (0 to last) in healthy human at 75 mg, po administered as single dose
Format: ADME, organism-based
Parameters: dose 75 mg, time 0 - last, route oral
testParameters: plasma
valueType: AUC(0-t) (ng·h/mL)
Give the number; ng·h/mL is assumed, so skip it.

// query Look up AUC(0-t) for this molecule: CCN1c2ncc(CCOc3cc[n+]([O-])c4ccccc34)cc2C(=O)N(C)c2cccnc21
// result 763

###

assayProtocol: Mean residence time in healthy human at 75 mg, po administered as single dose
Assay type: ADME, organism-based
testParameters: in vivo
valueType: MRT (h)
Give the number; h is assumed, so skip it.

// query Look up MRT for this compound: CCN1c2ncc(CCOc3cc[n+]([O-])c4ccccc34)cc2C(=O)N(C)c2cccnc21 [BILR 355]
// result 2.95

###

assayProtocol: AUC (0 to infinity) in healthy human at 100 mg, po administered as single dose
Assay type: ADME, organism-based
Set-up: dose 100 mg, time infinity, route oral
testParameters: plasma
valueType: AUC(0-inf) (ng·h/mL)
Give the number; ng·h/mL is assumed, so skip it.

// query Look up AUC(0-inf) for this compound: CCN1c2ncc(CCOc3cc[n+]([O-])c4ccccc34)cc2C(=O)N(C)c2cccnc21
// result 1310

###

assayProtocol: Mean residence time in healthy human at 12.5 mg, po administered as single dose coadministered with 100 mg of ritonavir
Assay type: ADME, organism-based
testParameters: in vivo
valueType: MRT (h)
Give the number; h is assumed, so skip it.

// query Look up MRT for this molecule: CCN1c2ncc(CCOc3cc[n+]([O-])c4ccccc34)cc2C(=O)N(C)c2cccnc21 [BILR 355]
// result 24.8

###

assayProtocol: AUC (0 to last) in healthy human at 50 mg, po administered as single dose
Assay type: ADME, organism-based
Parameters: dose 50 mg, route oral, time 0 - last
testParameters: plasma
valueType: AUC(0-t) (ng·h/mL)
Give the number; ng·h/mL is assumed, so skip it.

// query Look up AUC(0-t) for this compound: CCN1c2ncc(CCOc3cc[n+]([O-])c4ccccc34)cc2C(=O)N(C)c2cccnc21
// result 406

###

assayProtocol: Apparent volume of distribution at steady state in high fat fed healthy human at 50 mg, po administered as single dose coadministered with 100 mg of ritonavir
Format: ADME, organism-based
testParameters: in vivo, read-out: Vss/F
valueType: Vd/F
Respond with the figure and its unit, in that order.

// query Look up Vd/F for this molecule: CCN1c2ncc(CCOc3cc[n+]([O-])c4ccccc34)cc2C(=O)N(C)c2cccnc21
// result 81.4 L

###

assayProtocol: Cmax in healthy human at 5 mg, po administered as single dose by high-pressure liquid chromatography-tandem mass spectrometry/mass spectrometry method
Assay type: ADME, organism-based
Design: dose 5 mg, route oral
testParameters: in vivo
valueType: Cmax (ng/mL)
Give the number; ng/mL is assumed, so skip it.

// query Look up Cmax for this compound: CCN1c2ncc(CCOc3cc[n+]([O-])c4ccccc34)cc2C(=O)N(C)c2cccnc21
// result 4.36

###

assayProtocol: Apparent volume of distribution in terminal phase in healthy human at 50 mg, po administered as single dose
Format: ADME, organism-based
testParameters: in vivo, read-out: Vz/F
valueType: Vd/F (L)
Give the number; L is assumed, so skip it.

// query Look up Vd/F for this molecule: CCN1c2ncc(CCOc3cc[n+]([O-])c4ccccc34)cc2C(=O)N(C)c2cccnc21 [BILR 355]
// result 460

###

assayProtocol: Drug excretion in healthy human urine assessed as unchanged drug at 12.5 mg, po administered as single dose coadministered with 100 mg of ritonavir by high-pressure liquid chromatography-tandem mass spectrometry/mass spectrometry method
Type: ADME, organism-based
testParameters: read-out: Drug uptake
valueType: dose excreted (%)
Give the number; % is assumed, so skip it.

// query Look up dose excreted for this compound: CCN1c2ncc(CCOc3cc[n+]([O-])c4ccccc34)cc2C(=O)N(C)c2cccnc21
// result 6.37

###

assayProtocol: Apparent volume of distribution at steady state in healthy human at 100 mg, po administered as single dose
Type: ADME, organism-based
testParameters: in vivo, read-out: Vss/F
valueType: Vd/F (L)
Give the number; L is assumed, so skip it.

// query Look up Vd/F for this compound: CCN1c2ncc(CCOc3cc[n+]([O-])c4ccccc34)cc2C(=O)N(C)c2cccnc21
// result 163

###

assayProtocol: Apparent volume of distribution at steady state in healthy human at 50 mg, po administered as single dose coadministered with 100 mg of ritonavir
Format: ADME, organism-based
testParameters: in vivo, read-out: Vss/F
valueType: Vd/F (L)
Give the number; L is assumed, so skip it.

// query Look up Vd/F for this molecule: CCN1c2ncc(CCOc3cc[n+]([O-])c4ccccc34)cc2C(=O)N(C)c2cccnc21
// result 125

###

assayProtocol: Cmax in healthy human at 5 mg, po administered as single dose coadministered with 100 mg of ritonavir by high-pressure liquid chromatography-tandem mass spectrometry/mass spectrometry method
Assay type: ADME, organism-based
Design: dose 5 mg, route oral
testParameters: in vivo
valueType: Cmax (ng/mL)
Give the number; ng/mL is assumed, so skip it.

// query Look up Cmax for this molecule: CCN1c2ncc(CCOc3cc[n+]([O-])c4ccccc34)cc2C(=O)N(C)c2cccnc21
// result 25.3

###

assayProtocol: AUC (0 to infinity) in healthy human at 50 mg, po administered as single dose coadministered with 100 mg of ritonavir
Format: ADME, organism-based
Set-up: dose 50 mg, time infinity, route oral
testParameters: plasma
valueType: AUC(0-inf) (ng·h/mL)
Give the number; ng·h/mL is assumed, so skip it.

// query Look up AUC(0-inf) for this compound: CCN1c2ncc(CCOc3cc[n+]([O-])c4ccccc34)cc2C(=O)N(C)c2cccnc21
// result 6800

###

assayProtocol: Tmax in healthy human at 25 mg, po administered as single dose coadministered with 100 mg of ritonavir
Type: ADME, organism-based
testParameters: in vivo
valueType: Tmax (h)
Give the number; h is assumed, so skip it.

// query Look up Tmax for this compound: CCN1c2ncc(CCOc3cc[n+]([O-])c4ccccc34)cc2C(=O)N(C)c2cccnc21 [BILR 355]
// result 1.75

###

assayProtocol: Apparent volume of distribution in terminal phase in high fat fed healthy human at 50 mg, po administered as single dose coadministered with 100 mg of ritonavir
Format: ADME, organism-based
testParameters: in vivo, read-out: Vz/F
valueType: Vd/F
Respond with the figure and its unit, in that order.

// query Look up Vd/F for this molecule: CCN1c2ncc(CCOc3cc[n+]([O-])c4ccccc34)cc2C(=O)N(C)c2cccnc21
// result 100 L

###

assayProtocol: AUC (0 to infinity) in healthy human at 12.5 mg, po administered as single dose
Type: ADME, organism-based
Set-up: dose 12.5 mg, route oral, time infinity
testParameters: plasma
valueType: AUC(0-inf)
Respond with the figure and its unit, in that order.

// query Look up AUC(0-inf) for this compound: CCN1c2ncc(CCOc3cc[n+]([O-])c4ccccc34)cc2C(=O)N(C)c2cccnc21
// result 71.8 ng·h/mL

###

assayProtocol: Renal clearance in healthy human at 50 mg, po administered as single dose by high-pressure liquid chromatography-tandem mass spectrometry/mass spectrometry method
Type: ADME, organism-based, Kidney
testParameters: in vivo, read-out: CL_renal (converted)
valueType: CL renal
Respond with the figure and its unit, in that order.

// query Look up CL renal for this compound: CCN1c2ncc(CCOc3cc[n+]([O-])c4ccccc34)cc2C(=O)N(C)c2cccnc21 [BILR 355]
// result 9.15 mL/min

###

assayProtocol: Mean residence time in healthy human at 100 mg, po administered as single dose
Assay type: ADME, organism-based
testParameters: in vivo
valueType: MRT (h)
Give the number; h is assumed, so skip it.

// query Look up MRT for this molecule: CCN1c2ncc(CCOc3cc[n+]([O-])c4ccccc34)cc2C(=O)N(C)c2cccnc21
// result 2.23
